Target: Collagenase produced by normal human leukocytes or by normal human skin fibroblasts
Assay: in vitro collagenase inhibition assay (14C-acetylated collagen hydrolysis)
Assay type: biochemical
Settings: Experiment 1: Collagen I as substrate; pH 7.4, 35° C., one to five hours
Experimental: The compound N-[[(5-chloro-2-benzothiazolyl)thio]-phenylacetyl]-L-cysteine is tested for collagenase inhibition in an in vitro assay based on the procedure described by A. Sellers and J.J. Reynolds, Biochem. J., 167 (1977) pp. 353-60. Collagenase produced by normal human leukocytes or by normal human skin fibroblasts in cell cultures is purified by adsorption onto a collagen Sepharose 4B column. […]
recorded.metric: pIC50
A value of pIC50 is the negative decimal logarithm of a concentration given in moles per litre.

Dear colleague, please send me the reported pIC50 for O=C(N[C@@H](CS)C(=O)O)C(Sc1nc2cc(Cl)ccc2s1)c1ccccc1 (stereo partly shown) when you can.
5.24

====

target: Collagenase produced by normal human leukocytes or by normal human skin fibroblasts; assay: in vitro collagenase inhibition assay (14C-acetylated collagen hydrolysis); type: biochemical; conditions: Experiment 2: Collagen II as substrate; pH 7.4, 35° C., one to five hours
recorded.metric: IC50 (µM)
Answer with a number only, understood to be in µM.

Report the value of IC50 obtained on Collagenase produced by normal human leukocytes or by normal human skin fibroblasts for O=C(N[C@@H](CS)C(=O)O)C(Sc1nc2cc(Cl)ccc2s1)c1ccccc1 (stereo partly shown) .
12.5
